FYI, the data here is from paper PMC6173406.

# target.system: human BChE (Homo sapiens, UniProt P06276)
# Construct: gift of Dr. F. Nachon (Département de Toxicologie, Armed Forces Biomedical Research Institute, France)
# Sequence (P06276 29-602): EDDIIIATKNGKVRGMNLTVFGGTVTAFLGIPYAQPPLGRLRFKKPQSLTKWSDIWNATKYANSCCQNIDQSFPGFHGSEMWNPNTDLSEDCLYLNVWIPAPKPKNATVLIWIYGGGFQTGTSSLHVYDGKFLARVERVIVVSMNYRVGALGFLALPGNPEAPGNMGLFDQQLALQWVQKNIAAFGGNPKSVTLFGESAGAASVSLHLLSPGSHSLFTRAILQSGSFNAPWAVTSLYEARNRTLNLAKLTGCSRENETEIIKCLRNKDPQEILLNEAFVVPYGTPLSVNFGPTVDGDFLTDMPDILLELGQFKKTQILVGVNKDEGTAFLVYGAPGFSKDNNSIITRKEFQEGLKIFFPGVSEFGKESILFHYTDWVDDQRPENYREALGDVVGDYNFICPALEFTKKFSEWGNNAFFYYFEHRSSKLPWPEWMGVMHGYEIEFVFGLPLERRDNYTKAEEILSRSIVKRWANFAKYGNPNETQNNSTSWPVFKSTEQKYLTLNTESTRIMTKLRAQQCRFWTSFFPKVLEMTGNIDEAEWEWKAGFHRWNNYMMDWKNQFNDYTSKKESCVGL
# assay.text: Reversible inhibition of human BChE, Ellman method with ATCh, Hunter-Downs analysis
# Type: biochemical
# condition.details: inhibition selectivity, ratio of Ki constants for AChE and BChE
Exercise: for every item that follows, state its recorded Ki(AChE)/ Ki (BChE).
# respond with the number and nothing more

(Q) # lookup: Ki(AChE)/ Ki (BChE) of C=CC1C[N+]2(Cc3ccccc3)CCC1CC2C(O)c1ccnc2ccccc12 (stereo not shown) [CN-Bzl]
(A) 42

(Q) # lookup: Ki(AChE)/ Ki (BChE) of C=CC1C[N+]2(Cc3cccc([N+](=O)[O-])c3)CCC1CC2C(O)c1ccnc2ccccc12 (stereo not shown)
(A) 2.1

(Q) # lookup: Ki(AChE)/ Ki (BChE) of C=CC1C[N+]2(Cc3cccc(C)c3)CCC1CC2C(O)c1ccnc2ccccc12 (stereo not shown) [CN-(mCH3), N-(3-methylbenzyl) cinchoninium bromide]
(A) 11

(Q) # lookup: Ki(AChE)/ Ki (BChE) of C=CC1C[N+]2(Cc3ccc([N+](=O)[O-])cc3)CCC1CC2C(O)c1ccnc2ccccc12 (stereo not shown) [CN-(pNO2)]
(A) 6.6

(Q) # lookup: Ki(AChE)/ Ki (BChE) of C=CC1C[N+]2(Cc3ccccc3)CCC1CC2C(O)c1ccnc2ccccc12 (stereo not shown) [CD-Bzl]
(A) 200

(Q) # lookup: Ki(AChE)/ Ki (BChE) of C=CC1C[N+]2(Cc3ccc([N+](=O)[O-])cc3)CCC1CC2C(O)c1ccnc2ccccc12 (stereo not shown) [CD-(pNO2)]
(A) 5.9

====

# target.system: human BChE (Homo sapiens, UniProt P06276)
# Construct: gift of Dr. F. Nachon (Département de Toxicologie, Armed Forces Biomedical Research Institute, France)
# assay.text: Reversible inhibition of human BChE, Ellman method with ATCh, Hunter-Downs analysis
# Format: biochemical
# Design: key: c, n and m stands for competitive, noncompetitive and mixed type of inhibition; c, n and m stands for competitive, noncompetitive and mixed type of inhibition; c, n and m stands for competitive, noncompetitive and mixed type of inhibition
# condition.details: symbol in brackets after Ki
metric.name: BChE type of inhibition

C=CC1C[N+]2(Cc3ccccc3)CCC1CC2C(O)c1ccnc2ccccc12 (stereo not drawn) [CN-Bzl] :: c
C=CC1C[N+]2(Cc3cccc([N+](=O)[O-])c3)CCC1CC2C(O)c1ccnc2ccccc12 (stereo not drawn) [CD-(mNO2), N-(3-nitrobenzyl) cinchonidinium bromide] :: m
C=CC1C[N+]2(Cc3ccc([N+](=O)[O-])cc3)CCC1CC2C(O)c1ccnc2ccccc12 (stereo not drawn) [CN-(pNO2)] :: c

====

# target.system: human AChE (Homo sapiens, UniProt P22303)
# Construct: gift of Dr. F. Nachon (Département de Toxicologie, Armed Forces Biomedical Research Institute, France)
# Sequence (P22303 32-614): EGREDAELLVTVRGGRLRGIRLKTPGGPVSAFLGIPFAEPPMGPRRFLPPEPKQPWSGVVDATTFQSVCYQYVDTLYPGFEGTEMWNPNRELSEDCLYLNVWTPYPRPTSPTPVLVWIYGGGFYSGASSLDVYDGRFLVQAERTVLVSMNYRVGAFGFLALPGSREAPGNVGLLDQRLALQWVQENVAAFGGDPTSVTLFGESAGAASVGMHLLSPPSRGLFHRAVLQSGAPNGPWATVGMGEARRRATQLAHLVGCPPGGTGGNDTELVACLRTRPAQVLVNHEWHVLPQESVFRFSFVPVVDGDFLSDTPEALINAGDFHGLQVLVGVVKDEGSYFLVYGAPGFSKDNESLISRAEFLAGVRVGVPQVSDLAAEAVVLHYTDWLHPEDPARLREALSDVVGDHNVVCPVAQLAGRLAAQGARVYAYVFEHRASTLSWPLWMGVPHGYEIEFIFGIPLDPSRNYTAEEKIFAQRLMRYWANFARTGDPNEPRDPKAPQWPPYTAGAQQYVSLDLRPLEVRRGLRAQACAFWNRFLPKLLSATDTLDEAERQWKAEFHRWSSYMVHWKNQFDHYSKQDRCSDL
# assay.text: Reversible inhibition of human AChE, Ellman method with ATCh, Hunter-Downs analysis
# Assay type: biochemical
# Set-up: key: c, n and m stands for competitive, noncompetitive and mixed type of inhibition; c, n and m stands for competitive, noncompetitive and mixed type of inhibition; c, n and m stands for competitive, noncompetitive and mixed type of inhibition
# condition.details: symbol in brackets after Ki
metric.name: AChE type of inhibition

Here's what some known entries look like.
C=CC1C[N+]2(Cc3cccc(Cl)c3)CCC1CC2C(O)c1ccnc2ccccc12 (centres unmarked) [CD-(mCl)] :: c
C=CC1C[N+]2(Cc3cccc([N+](=O)[O-])c3)CCC1CC2C(O)c1ccnc2ccccc12 (centres unmarked) [CD-(mNO2), N-(3-nitrobenzyl) cinchonidinium bromide] :: c
C=CC1C[N+]2(Cc3ccc(Cl)cc3)CCC1CC2C(O)c1ccnc2ccccc12 (centres unmarked) [CN-(pCl)] :: n
C=C[C@H]1C[N@@]2CC[C@H]1C[C@@H]2[C@@H](O)c1ccnc2ccccc12 [CN, cinchonine, reference compound] :: c
C=CC1C[N+]2(C)CCC1CC2C(O)c1ccnc2ccccc12 (centres unmarked) [CN-Met] :: c

(Q) # lookup: AChE type of inhibition of C=CC1C[N+]2(Cc3ccc(C)cc3)CCC1CC2C(O)c1ccnc2ccccc12 (centres unmarked) [CD-(pCH3)]
(A) c

(Q) # lookup: AChE type of inhibition of C=CC1C[N+]2(Cc3ccccc3)CCC1CC2C(O)c1ccnc2ccccc12 (centres unmarked) [CD-Bzl]
(A) m

(Q) # lookup: AChE type of inhibition of C=CC1C[N+]2(Cc3ccc(Br)cc3)CCC1CC2C(O)c1ccnc2ccccc12 (centres unmarked) [CD-(pBr)]
(A) m

(Q) # lookup: AChE type of inhibition of C=CC1C[N+]2(Cc3cccc(Br)c3)CCC1CC2C(O)c1ccnc2ccccc12 (centres unmarked) [CN-(mBr)]
(A) m

(Q) # lookup: AChE type of inhibition of C=CC1C[N+]2(Cc3ccc(Cl)cc3)CCC1CC2C(O)c1ccnc2ccccc12 (centres unmarked) [CD-(pCl)]
(A) n

(Q) # lookup: AChE type of inhibition of C=CC1C[N+]2(Cc3ccc([N+](=O)[O-])cc3)CCC1CC2C(O)c1ccnc2ccccc12 (centres unmarked) [CD-(pNO2)]
(A) n

(Q) # lookup: AChE type of inhibition of C=CC1C[N+]2(Cc3ccc(Br)cc3)CCC1CC2C(O)c1ccnc2ccccc12 (centres unmarked) [CN-(pBr)]
(A) m

(Q) # lookup: AChE type of inhibition of C=CC1C[N+]2(Cc3cccc(C)c3)CCC1CC2C(O)c1ccnc2ccccc12 (centres unmarked) [CN-(mCH3), N-(3-methylbenzyl) cinchoninium bromide]
(A) m

(Q) # lookup: AChE type of inhibition of C=CC1C[N+]2(Cc3cccc(C)c3)CCC1CC2C(O)c1ccnc2ccccc12 (centres unmarked) [CD-(mCH3)]
(A) m
